Biological target: T1, recombinant human CD3 epsilon/delta heterodimer (human, UniProt P07766 23-126; P04234 22-105)
T1 construct: Recombinant protein in solution (200-50 nM) in the Octet assay; also called hCD3 E/D; human CD3E/D
T1 sequence (P07766 23-126, stated change not applied, chain 1 of 2): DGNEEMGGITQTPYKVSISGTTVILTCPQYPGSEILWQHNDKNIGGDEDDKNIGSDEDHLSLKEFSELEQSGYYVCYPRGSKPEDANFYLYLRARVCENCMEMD
T1 sequence (P04234 22-105, stated change not applied, chain 2 of 2): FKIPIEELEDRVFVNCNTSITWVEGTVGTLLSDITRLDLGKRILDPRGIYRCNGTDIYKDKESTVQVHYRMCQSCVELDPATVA
Test: Octet BLI, mAb on FAB2G sensor, hCD3 E/D 200-50 nM; R^2 0.98;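 also: antibodies purified from hybridoma supernatants, measured by Octet binding to recombinant human CD3 protein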
quantity_name: Kd (nM)
Reply with just the number (in nM).

binder	Kd (nM)
ABL-CD3-34 (antibody, V domains shown, Chimeric hybridoma mAb: human V, CH1, upper hinge; mouse middle hinge, CH2, CH3) VH: EVHLVESGGGLVKPGGSLRLSCAASGFTFSRYSMNWVRQAPGKGLEWVSSISRSSSYIYYADSVKGRFTISRDNAKNSLYLQMNSLRAEDTAVYYCAREPRTLGMDYWGQGILVTVSS VL: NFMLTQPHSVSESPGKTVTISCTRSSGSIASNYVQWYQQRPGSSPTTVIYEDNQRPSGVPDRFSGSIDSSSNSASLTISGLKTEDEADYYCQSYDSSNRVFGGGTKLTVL	9.01

Prompt: State, in one line, measured Kd of ABL-CD3-57 (antibody, V domains shown, Chimeric hybridoma mAb: human V, CH1, upper hinge; mouse middle hinge, CH2, CH3) VH: EVQLVESGGGLVKPGGSLRLSCAASGFTFSSYTMNWVRQAPGKGLEWVSSISTSSRYIYYTDSVKGRFTISRDDAKNSLYLQMNSLRAEDTAVYYCTRNWGYDVFDIWGQGTMVIVSS VL: QPVLTQPSSHSASSGASVRLTCMLSSGFSVGDFWIRWYQQKPGNPPRYLLYYHSDSNKGQGSGVPSRFSGSNDASANAGILRISGLQPEDEADYYCGTWHSNSKTQVFGGGTKLTVL
Response: 4.29
